Recorded IC50 by entry
- target.desc: CYP2C19 (Homo sapiens)
- Construct: from tissue; host or cells: human liver microsomes
- Sequence (P33261 whole entry): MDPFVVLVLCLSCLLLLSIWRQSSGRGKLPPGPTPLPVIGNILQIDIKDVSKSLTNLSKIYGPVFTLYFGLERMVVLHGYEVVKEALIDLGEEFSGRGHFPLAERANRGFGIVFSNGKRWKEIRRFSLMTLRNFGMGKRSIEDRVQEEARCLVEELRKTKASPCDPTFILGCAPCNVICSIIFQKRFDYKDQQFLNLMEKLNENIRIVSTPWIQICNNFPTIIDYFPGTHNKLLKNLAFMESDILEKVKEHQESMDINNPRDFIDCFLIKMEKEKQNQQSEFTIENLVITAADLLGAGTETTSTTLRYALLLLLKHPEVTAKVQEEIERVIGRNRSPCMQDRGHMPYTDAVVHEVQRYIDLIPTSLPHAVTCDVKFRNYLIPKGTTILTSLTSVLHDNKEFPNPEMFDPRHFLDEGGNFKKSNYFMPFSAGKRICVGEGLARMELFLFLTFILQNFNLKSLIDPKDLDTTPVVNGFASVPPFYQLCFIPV
- test: CYP inhibition assay, human liver microsomes, substrate S-mephenytoin
- Format: in vitro ADME
- assay.context: human liver microsomes, 10 min incubation, LC-MS/MS; read-out: CYP Inhibition Activity (IC50/nM) CYP2C19
endpoint.name: IC50

>>> observed_measurement("COc1ccc(N2CCC(C)(CN(C)C)CC2)c(NC(=O)c2ccc(C3CCOCC3)o2)c1")
"> 30000 nM"
>>> observed_measurement("CC1(C)CCN(c2ccc(C3CC3)cc2NC(=O)c2ccc(C3CCOCC3)o2)CC1")
"> 30000 nM"
>>> observed_measurement("CC1(C(=O)O)CCN(c2ccc(C(F)(F)F)cc2NC(=O)c2ccc(C3CCOCC3)o2)CC1")
"> 30000 nM"

* * *

- target.desc: CYP2C9 (Homo sapiens, UniProt P11712)
- Construct: from tissue; host or cells: human liver microsomes
- Sequence (P11712 whole entry): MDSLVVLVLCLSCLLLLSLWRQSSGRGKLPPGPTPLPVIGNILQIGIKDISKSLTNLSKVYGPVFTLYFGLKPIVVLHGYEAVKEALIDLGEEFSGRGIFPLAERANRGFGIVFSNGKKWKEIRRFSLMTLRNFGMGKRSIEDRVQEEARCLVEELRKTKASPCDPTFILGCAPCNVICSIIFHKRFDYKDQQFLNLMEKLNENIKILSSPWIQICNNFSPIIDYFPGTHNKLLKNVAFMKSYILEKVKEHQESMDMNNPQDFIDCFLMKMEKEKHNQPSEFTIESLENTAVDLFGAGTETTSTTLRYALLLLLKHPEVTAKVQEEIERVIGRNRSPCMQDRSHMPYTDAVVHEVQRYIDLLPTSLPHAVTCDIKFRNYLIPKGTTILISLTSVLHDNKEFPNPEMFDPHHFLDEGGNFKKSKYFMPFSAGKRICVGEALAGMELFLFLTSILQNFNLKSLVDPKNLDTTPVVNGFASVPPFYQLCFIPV
- test: CYP inhibition assay, human liver microsomes, substrate diclofenac
- Format: in vitro ADME
- assay.context: human liver microsomes, 10 min incubation, LC-MS/MS; read-out: CYP Inhibition Activity (IC50/nM) CYP2C9
endpoint.name: log10(IC50) (log10 of the value in nM)

>>> observed_measurement("COc1ccc(N2CCC(C)(O)CC2)c(NC(=O)c2ccc(-c3ccncc3)o2)c1 [Example 9]")
2.54
>>> observed_measurement("O=C(Nc1cc(C(F)(F)F)ccc1N1CCC(O)(c2ccccc2)CC1)c1ccc(C2CCOCC2)o1 [Example 22]")
4.10
>>> observed_measurement("O=C(Nc1cc(C(F)(F)F)ccc1N1CCC(O)CC1)c1ccc(-c2ccncc2)o1 [Example 32]")
3.18
>>> observed_measurement("CC1(O)CCN(c2ccc(Cl)cc2NC(=O)c2ccc(-c3ccncc3)o2)CC1 [Example 5]")
2.82
>>> observed_measurement("CC1(C(N)=O)CCN(c2ccc(C(F)(F)F)cc2NC(=O)c2ccc(C3CCOCC3)o2)CC1 [Example 75]")
3.64
>>> observed_measurement("COc1ccc(N2CCC(C)(CN(C)C)CC2)c(NC(=O)c2ccc(C3CCOCC3)o2)c1 [Example 92]")
4.02
>>> observed_measurement("Cc1ccc(N2CCC(C)(O)CC2)c(NC(=O)c2ccc(C3CCOCC3)o2)c1 [Example 13]")
3.88
>>> observed_measurement("CN(C)CC1(C)CCN(c2ccc(C3CC3)cc2NC(=O)c2ccc(C3CCOCC3)o2)CC1 [Example 93]")
4.14
>>> observed_measurement("CC1(C)CCN(c2ccc(Cl)cc2NC(=O)c2ccc(C3CCOCC3)o2)CC1 [Example 65]")
4.15
>>> observed_measurement("CC1(O)CCN(c2ccc(C(F)(F)F)cc2NC(=O)c2ccc(C3CCOCC3)o2)CC1 [Example 11]")
3.97
>>> observed_measurement("CC1(CO)CCN(c2ccc(C3CC3)cc2NC(=O)c2ccc(C3CCOCC3)o2)CC1 [Example 67]")
3.52
>>> observed_measurement("CC1CCN(c2ccc(C(F)(F)F)cc2NC(=O)c2ccc(-c3ccncc3)o2)CC1 [Example 34]")
3.75
>>> observed_measurement("O=C(Nc1cc(C(F)(F)F)ccc1N1CCC(O)CC1)c1ccc(C2CCOCC2)o1 [Example 33]")
3.88
>>> observed_measurement("CC1(O)CCN(c2ccc(C(F)(F)F)cc2NC(=O)c2ccc(-c3ccncc3)o2)CC1 [Example 4]")
3.39
>>> observed_measurement("CN(C)C(=O)C1(C)CCN(c2ccc(C3CC3)cc2NC(=O)c2ccc(C3CCOCC3)o2)CC1 [Example 86]")
2.30

* * *

- target.desc: CYP3A4 (Homo sapiens, UniProt P08684)
- Construct: from tissue; host or cells: human liver microsomes
- Sequence (P08684 whole entry): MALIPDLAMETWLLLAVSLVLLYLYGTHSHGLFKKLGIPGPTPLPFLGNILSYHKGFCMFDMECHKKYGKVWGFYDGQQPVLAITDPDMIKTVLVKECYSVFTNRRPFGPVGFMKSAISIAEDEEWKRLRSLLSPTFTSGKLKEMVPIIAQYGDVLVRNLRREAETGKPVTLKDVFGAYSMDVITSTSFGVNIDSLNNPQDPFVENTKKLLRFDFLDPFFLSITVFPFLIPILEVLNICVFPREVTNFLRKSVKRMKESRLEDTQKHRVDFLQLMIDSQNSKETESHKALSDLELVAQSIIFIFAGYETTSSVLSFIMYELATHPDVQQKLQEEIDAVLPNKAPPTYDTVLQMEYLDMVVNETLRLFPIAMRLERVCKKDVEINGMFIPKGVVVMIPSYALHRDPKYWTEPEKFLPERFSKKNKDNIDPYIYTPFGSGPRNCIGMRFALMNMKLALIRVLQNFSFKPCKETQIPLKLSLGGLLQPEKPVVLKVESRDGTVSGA
- test: CYP inhibition assay, human liver microsomes, substrate midazolam
- Type: in vitro ADME
- assay.context: human liver microsomes, 10 min incubation, LC-MS/MS; read-out: CYP Inhibition Activity (IC50/nM) CYP3A4
Recorded IC50 by entry
endpoint.name: IC50

>>> observed_measurement("C[C@]1(O)CCN(c2ccc(C(F)(F)F)cc2NC(=O)c2ccc(C3CCOCC3)o2)C1 [Example 51]")
"> 30000 nM"
>>> observed_measurement("CCC1(O)CCN(c2ccc(C(F)(F)F)cc2NC(=O)c2ccc(C3CCOCC3)o2)CC1 [Example 20]")
"> 30000 nM"
>>> observed_measurement("CC1(O)CCN(c2ccc(C3CC3)cc2NC(=O)c2ccc(C3CCOCC3)o2)C1 (racemic) [Example 59]")
"> 30000 nM"
>>> observed_measurement("CC1(C)CCN(c2ccc(Cl)cc2NC(=O)c2ccc(C3CCOCC3)o2)CC1 [Example 65]")
"> 30000 nM"
>>> observed_measurement("CC1(C)CCN(c2ccc(C3CC3)cc2NC(=O)c2ccc(C3CCOCC3)o2)CC1 [Example 64]")
"> 30000 nM"
>>> observed_measurement("Cc1ccc(N2CCC(C)(CO)CC2)c(NC(=O)c2ccc(C3CCOCC3)o2)c1 [Example 66]")
"> 30000 nM"
>>> observed_measurement("CC1(C(=O)O)CCN(c2ccc(C(F)(F)F)cc2NC(=O)c2ccc(C3CCOCC3)o2)CC1 [Example 27]")
"> 30000 nM"
>>> observed_measurement("CC1(CO)CCN(c2ccc(C(F)(F)F)cc2NC(=O)c2ccc(-c3ccncc3)o2)CC1 [Example 24]")
"> 30000 nM"
>>> observed_measurement("CC1(O)CCN(c2ccc(OC(F)(F)F)cc2NC(=O)c2ccc(-c3ccncc3)o2)CC1 [Example 10]")
"3780 nM"
>>> observed_measurement("O=C(Nc1cc(C(F)(F)F)ccc1N1CCC(O)(C2CC2)CC1)c1ccc(C2CCOCC2)o1 [Example 21]")
"20900 nM"
>>> observed_measurement("O=C(Nc1cc(C2CC2)ccc1N1CCC(O)CC1)c1ccc(C2CCOCC2)o1 [Example 61]")
"> 30000 nM"
>>> observed_measurement("O=C(Nc1cc(C(F)(F)F)ccc1N1CCC(O)CC1)c1ccc(-c2ccncc2)o1 [Example 32]")
"4200 nM"
>>> observed_measurement("CC1(O)CCCN(c2ccc(C(F)(F)F)cc2NC(=O)c2ccc(C3CCOCC3)o2)CC1 (racemic) [Example 40]")
"10900 nM"

* * *

- target.desc: CYP2C19 (Homo sapiens)
- Construct: from tissue; host or cells: human liver microsomes
- test: CYP inhibition assay, human liver microsomes, substrate S-mephenytoin
- Format: in vitro ADME
- assay.context: human liver microsomes, 10 min incubation, LC-MS/MS; read-out: CYP Inhibition Activity (IC50/nM) CYP2C19
Label True when IC50 is strictly below 7000 nM; at or above that, label False.

>>> discrete_label("CC1(CN2CCCC2)CCN(c2ccc(C(F)(F)F)cc2NC(=O)c2ccc(C3CCOCC3)o2)CC1")
"False"
>>> discrete_label("O=C(Nc1cc(C(F)(F)F)ccc1N1CCC2(CCCC2)CC1)c1ccc(C2CCOCC2)o1")
"False"
>>> discrete_label("Cc1ccc(N2CCC(C)(O)C2)c(NC(=O)c2ccc(C3CCOCC3)o2)c1 (racemic)")
"False"
>>> discrete_label("CC1(C)CCN(c2ccc(Cl)cc2NC(=O)c2ccc(C3CCOCC3)o2)CC1")
"False"
>>> discrete_label("CC1(C)CCN(c2ccc(C(F)(F)F)cc2NC(=O)c2ccc(-c3ccncc3)o2)CC1")
"False"
>>> discrete_label("CC1(N)CCN(c2ccc(C(F)(F)F)cc2NC(=O)c2ccc(C3CCOCC3)o2)CC1")
"False"
>>> discrete_label("CNCC1(C)CCN(c2ccc(C(F)(F)F)cc2NC(=O)c2ccc(C3CCOCC3)o2)CC1")
"False"
>>> discrete_label("O=C(Nc1cc(C(F)(F)F)ccc1N1CCN(Cc2ccco2)CC1)c1ccc(-c2ccncc2)o1 [Reference Example 2, reference compound]")
"True"
>>> discrete_label("CC1(C(N)=O)CCN(c2ccc(C(F)(F)F)cc2NC(=O)c2ccc(-c3ccncc3)o2)CC1")
"False"
>>> discrete_label("O=C(Nc1cc(C2CC2)ccc1N1CCCC(O)CC1)c1ccc(C2CCOCC2)o1 (racemic)")
"True"
>>> discrete_label("O=C(Nc1cc(Cl)ccc1N1CCCC(O)CC1)c1ccc(C2CCOCC2)o1 (racemic)")
"True"
>>> discrete_label("CCC1(O)CCN(c2ccc(C(F)(F)F)cc2NC(=O)c2ccc(C3CCOCC3)o2)CC1")
"False"
>>> discrete_label("CC1(O)CCN(c2ccc(C(F)(F)F)cc2NC(=O)c2ccc(C3CCOCC3)o2)C1 (racemic)")
"True"
>>> discrete_label("CN(C)CC1(C)CCN(c2ccc(C(F)(F)F)cc2NC(=O)c2ccc(C3CCOCC3)o2)CC1")
"False"

* * *

- target.desc: SRPK1 (Homo sapiens, UniProt Q96SB4)
- Sequence (Q96SB4 whole entry, species assumed): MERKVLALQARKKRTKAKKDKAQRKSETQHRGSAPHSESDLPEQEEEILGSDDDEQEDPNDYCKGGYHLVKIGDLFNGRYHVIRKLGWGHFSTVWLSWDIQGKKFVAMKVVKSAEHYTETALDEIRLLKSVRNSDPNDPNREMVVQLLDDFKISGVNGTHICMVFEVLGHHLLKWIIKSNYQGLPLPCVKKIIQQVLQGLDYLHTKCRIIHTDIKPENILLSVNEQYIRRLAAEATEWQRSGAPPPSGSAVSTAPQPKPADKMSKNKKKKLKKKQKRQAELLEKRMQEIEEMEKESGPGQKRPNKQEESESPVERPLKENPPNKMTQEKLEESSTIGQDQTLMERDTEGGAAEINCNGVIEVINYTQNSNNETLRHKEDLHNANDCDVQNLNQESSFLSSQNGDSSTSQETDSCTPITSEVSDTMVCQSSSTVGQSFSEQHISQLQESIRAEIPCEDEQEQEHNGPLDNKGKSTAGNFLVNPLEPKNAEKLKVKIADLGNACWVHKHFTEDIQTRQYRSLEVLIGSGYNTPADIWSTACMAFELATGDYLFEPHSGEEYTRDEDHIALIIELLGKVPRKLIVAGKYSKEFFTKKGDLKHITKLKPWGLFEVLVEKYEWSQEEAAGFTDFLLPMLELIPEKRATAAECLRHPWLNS
- test: In vitro SRPK1 assay (Kinase-Glo)
- Format: biochemical
Label Yes when IC50 is strictly below 9 nM; at or above that, label No.

>>> discrete_label("O=C(Nc1cc(C2CC2)ccc1N1CCCC(O)CC1)c1ccc(-c2ccncc2)o1 (racemic)")
"Yes"
>>> discrete_label("CC1(O)CCN(c2ccc(OC(F)(F)F)cc2NC(=O)c2ccc(-c3ccncc3)o2)CC1")
"Yes"
>>> discrete_label("CNC(=O)C1(C)CCN(c2ccc(C(F)(F)F)cc2NC(=O)c2ccc(C3CCOCC3)o2)CC1")
"Yes"
>>> discrete_label("C[C@@]1(O)CCN(c2ccc(C(F)(F)F)cc2NC(=O)c2ccc(-c3ccncc3)o2)C1")
"No"
>>> discrete_label("CC1(CN2CCCCC2)CCN(c2ccc(C(F)(F)F)cc2NC(=O)c2ccc(C3CCOCC3)o2)CC1")
"No"
>>> discrete_label("COc1ccc(N2CCC(C)(C(=O)N(C)C)CC2)c(NC(=O)c2ccc(C3CCOCC3)o2)c1")
"No"
>>> discrete_label("CC1(CO)CCN(c2ccc(Cl)cc2NC(=O)c2ccc(C3CCOCC3)o2)CC1")
"Yes"
